The origin of these recorded values is PubChem BioAssay (NCI).

test system: TK-10 renal; assay: NCI tumour cell line growth inhibition, 48 h; in the data active means GI50 below about 0.43 µM; inactive means the rest
Your response should consist of one outcome taken from active, inactive

Exercise: Entry CC1OC(OC2C(O)C(OCCc3ccc(O)c(O)c3)OC(CO)C2OC(=O)/C=C/c2ccc(O)c(O)c2)C(O)C(O)C1OC1OCC(O)(CO)C1O (centres undefined) : call = ?
Solution: inactive

Exercise: And then "N#C/C(=C\c1cn(Cc2ccccc2)c2ccccc12)C(=O)Nc1ncc(Cc2ccccc2Cl)s1" , what is it?
Solution: inactive

Exercise: And then "C[CH2][Sn]([CH2]C)([O]C(=O)c1cccc(OC)c1)[O][Sn]([CH2]C)([CH2]C)[O]C(=O)c1cccc(OC)c1" , what is it?
Solution: inactive

Exercise: And then CNC(=O)C(CCc1ccccc1)NC(=O)C(CC(=O)NO)CC(C)C (centres undefined) , what is it?
Solution: inactive

Exercise: And then "O=C1NC(=O)/C(=C/c2c(Cl)nc3sccn23)S1" , what is it?
Solution: inactive

Exercise: And then "COc1cc(/C=C/C(=O)Nc2ccc3c(c2)/C(=C\c2cccn2C)C(=O)N3)cc(OC)c1OC" , what is it?
Solution: inactive

Exercise: And then "O=C(NC(=S)Nc1ccccn1)c1ccccc1" , what is it?
Solution: inactive

Exercise: And then "O=C(Nc1cccc(-n2ccc3c(NC(=O)c4ccccc4)nccc32)c1)Nc1ccc(Cl)c(C(F)(F)F)c1" , what is it?
Solution: inactive

Exercise: And then "O=C1c2ccccc2C(=O)c2c1c(=O)c(=O)c1ccccc1c(=O)n2Cc1ccccc1" , what is it?
Solution: inactive

Exercise: And then CN1CCCC1c1cccnc1.O=C(O)c1ccccc1O.O=C([O-])c1ccccc1[OH2+].O=C([O-])c1ccccc1[OH2+].O=C([O-])c1ccccc1[OH2+].[Cu+2] (centres undefined) , what is it?
Solution: inactive

Exercise: And then "Cn1c(=O)n(CCCO)c(=O)c2c1nc(Oc1cccc(OC(F)(F)F)c1)n2Cc1ccc(Cl)cc1" , what is it?
Solution: inactive

Exercise: And then "CCCSc1ccc2nc(NC(=O)OC)[nH]c2c1" , what is it?
Solution: inactive

Exercise: And then "O=C(Nc1ccc(-n2cc(-c3ccncc3)c(-c3ccc(O)c(Cl)c3)n2)cc1)c1cc(C(F)(F)F)cc(C(F)(F)F)c1" , what is it?
Solution: inactive

Exercise: And then "CCn1c2ccccc2c2cc(/C=C(/C#N)C(N)=S)ccc21" , what is it?
Solution: active

----------
Exercise: state measured TGI for each of the molecules provided.
test system: SK-OV-3 ovarian; test: NCI tumour cell line growth inhibition, 48 h

Exercise: GET /values?readout=TGI&item= "COc1cc(/C=C/C(=O)Nc2ccc3c(c2)/C(=C\c2cccn2C)C(=O)N3)cc(OC)c1OC"
Solution: 58.8 µM

Exercise: And then "COc1ccc2c3c1O[C@H]1[C@@H](O)CC[C@@]4(O)[C@@H](C2)N(C)CC[C@]314" , what is it?
Solution: > 100 µM

Exercise: And then "COC1=CC(=O)c2c(ccc3ncnc(N)c23)C1=O" , what is it?
Solution: 16.3 µM

Exercise: And then "COc1ccc(/C=C/c2nsc(/C=C/c3ccc(OC)cc3)n2)cc1" , what is it?
Solution: > 100 µM

Exercise: And then "NC(=S)N/N=C/c1c[nH]c2ccccc12" , what is it?
Solution: > 100 µM

Exercise: And then COC(=O)C1=C(OC(=O)c2ccccc2)C(C(=O)OC)[C@]2(O)[C@@H](C(=O)OC)C1CC(c1ccccc1OC)[C@@H]2C(=O)OC (stereo not given in full) , what is it?
Solution: > 100 µM

Exercise: And then "CNc1ccc(/C=C2\C=Cc3ccccc32)cc1" , what is it?
Solution: > 100 µM

Exercise: And then "N#Cc1c(-c2ccc([N+](=O)[O-])cc2)cc(-c2ccc(Nc3ccnc4cc(C(F)(F)F)ccc34)cc2)[nH]c1=O" , what is it?
Solution: > 100 µM

Exercise: And then CC1=NCC[N+]1(CCc1ccccc1)Cc1ccccc1 (stereo not given) , what is it?
Solution: > 100 µM

Exercise: And then "CN(C)c1nc(=Nc2ccc3c(c2)OCO3)ss1" , what is it?
Solution: > 100 µM
